// reported IC50 for each item listed
tested on: HeLa; assay: Cytotoxicity in human HeLa cells assessed as reduction in cell viability incubated for 48 hrs by MTT assay; assay type: functional, cell-based
Measure Name: IC50 (µM)

# Compound, Result Comparator, Reported Value
measured = [
    ("Cc1ccnc(NC(NC(=O)OCCn2c([N+](=O)[O-])cnc2C)C(Cl)(Cl)Cl)n1 (stereo unspecified)", "=", 94.7),
    ("COc1ccnc(NC(NC(=O)OCCn2c([N+](=O)[O-])cnc2C)C(Cl)(Cl)Cl)n1 (stereo unspecified)", "=", 128),
    ("Cc1ncc([N+](=O)[O-])n1CCOC(=O)NC(Nc1nccc(Cl)n1)C(Cl)(Cl)Cl (stereo unspecified)", ">", 300),
    ("O=C(NC(n1ncc2c(O)ncnc21)C(Cl)(Cl)Cl)OCCc1ccccn1 (stereo unspecified)", ">", 300),
    ("Nc1nc(N)c2ncn(C(NC(=O)OCCN3CCOCC3)C(Cl)(Cl)Cl)c2n1 (stereo unspecified)", "=", 47.5),
    ("Cc1ncc([N+](=O)[O-])n1CCOC(=O)NC(Nc1nccc2ccccc12)C(Cl)(Cl)Cl (stereo unspecified)", ">", 300),
]
